The reported numbers originate from patent US6573246B1.

- Tested on: A549 cells (non-small cell lung adenocarcinoma)
- assay_notes: growth inhibition of A549 cells in culture
- Assay type: cell-based, human
- run_conditions: Homo sapiens, mean ± standard deviation, read-out: Gl50 (concentration of lipid required to inhibit the growth of fifty percent of the cells in culture)
assay_metric: pIC50
To interpret pIC50, take it as minus log10 of a concentration measured in moles per litre.

get_value(item= CCCCCCCCCCCCCCCCCCOCC(COP(=O)([O-])OCC[N+](C)(C)C)OC (stereo not shown) [compound 1, edelfosine, reference compound] , readout=pIC50) returns 5.30
